System: HEK-293T
TEST_METHOD_NOTES: Incucyte cell viability with HEK293T; further: filed as whole numbers so only -1 and 0 and 1 occur
Format: toxicity, cell-based
ASSAY_CONDITIONS: human, 12 h, 10 µM, compound concentration 10 uM, replicate number 2, timepoint 12 hours
Could you please report measured Growth Rate for the items listed next?

Below, 5 compounds whose answers are already recorded.
>>> value("Cc1cnc(-c2cc(Cl)ccc2F)cc1-n1c(=O)n(CC(N)=O)c2cnccc21")
1
>>> value("CN1CC(=O)N=C1NC(=O)Nc1cccc(Cl)c1 [FENOBAM ANHYDROUS]")
0
>>> value("CS(=O)(=O)c1cc(C2(NC(=O)c3cncc4c3cnn4-c3ccc(F)cc3)CC2)ccn1")
0
>>> value("COc1cccc(OC)c1-c1cc(C(=O)NC2(C(=O)O)C3CC4CC(C3)CC2C4)nn1-c1ccnc2cc(Cl)ccc12 (centres undefined)")
1
>>> value("Cc1cc(C)c(N)c(C#Cc2cccc(F)c2)n1.Cl")
1

Please give Growth Rate, item by item, for the list that follows.
1. CCCCc1nc(Cl)c(CO)n1Cc1ccc(-c2ccccc2-c2nn[nH]n2)cc1
2. N#Cc1c(N)nc(SCC(N)=O)c(C#N)c1-c1ccc(OCC2CC2)cc1
3. O=C(c1ccc(F)c(F)c1Nc1ccc(I)cc1F)N1CC(O)([C@@H]2CCCCN2)C1
4. CN(C(=O)Cc1ccc(Cl)c(Cl)c1)C(CN1CCCC1)c1cccc(OCC(=O)O)c1.Cl (centres undefined)

Reply:
0
0
0
0

###

System: U2OS
TEST_METHOD_NOTES: Multiplex assay against U2OS
Type: toxicity, cell-based
ASSAY_CONDITIONS: human, 12 h, 1 µM, compound concentration 1 uM, replicate 2
Could you please report measured Population Normal (%) for the items listed next?
# answer = value followed by unit

>>> value("CC(C)N1CCC(C)(C)c2cc(C#Cc3ccc(C(=O)O)cc3)ccc21")
"86%"
>>> value("CCC(=O)O[C@]1(C(=O)SCF)[C@H](C)C[C@H]2[C@@H]3C[C@H](F)C4=CC(=O)C=C[C@]4(C)[C@@]3(F)[C@@H](O)C[C@@]21C [FLUTICASONE PROPIONATE]")
"87%"
>>> value("Cl.Cl.Nc1ncnc2c1c(-c1cccc(OCc3ccccc3)c1)cn2[C@H]1C[C@@H](CN2CCC2)C1")
"93%"
>>> value("CCCn1c(=O)c2[nH]c(C34CC5CC(CC3C5)C4)nc2n(CCC)c1=O [ROLOFYLLINE]")
"96%"
>>> value("CN(C)CCOc1ccc(-c2nc(-c3ccncc3)c(-c3ccc4c(c3)CC/C4=N\\O)[nH]2)cc1 [SB590885]")
"84%"

Please give Population Normal (%), item by item, for the list that follows.
1. CC(C)Oc1ccc(C(=O)N[C@H](CNC(=O)CN(C)C)Cc2ccc(-c3cn4cccc([C@H](C)O)c4n3)cc2)cc1Cl [GSK-923295A]
2. CC(C)(C)c1cnc(CSc2cnc(NC(=O)C3CCNCC3)s2)o1 [BMS-387032]

Reply:
1: 88%; 2: 84%

###

System: HEK-293T
TEST_METHOD_NOTES: Multiplex assay against HEK293T
Type: toxicity, cell-based
ASSAY_CONDITIONS: human, 24 h, 1 µM, compound concentration 1 uM, replicate 2
Flag rule - Population Mitochondria Different-Phenotype (%) less than 10% flags 1; the remaining entries get -1.

>>> qualitative_label("Cc1nc(Cc2cccc(C(F)(F)F)c2)sc1-c1ccc(C(N)=O)nc1 [TP-024n]")
-1

Query: Is the reported Population Mitochondria Different-Phenotype (%) for "CC(C)N1CCC(C)(C)c2cc(C#Cc3ccc(C(=O)O)cc3)ccc21" strictly below 10%?
Reply: 1

Query: Is the reported Population Mitochondria Different-Phenotype (%) for CC(C)Oc1ccc(C(=O)N[C@H](CNC(=O)CN(C)C)Cc2ccc(-c3cn4cccc([C@H](C)O)c4n3)cc2)cc1Cl [GSK-923295A] strictly below 10%?
Reply: 1

Query: Is the reported Population Mitochondria Different-Phenotype (%) for "COc1cc2c(NC3CCN(C(C)C)CC3)nc(N3CCC(F)(F)CC3)nc2cc1OCCCN1CCCC1" strictly below 10%?
Reply: -1

Query: Is the reported Population Mitochondria Different-Phenotype (%) for "CN(C)CCOc1ccc(-c2nc(-c3ccncc3)c(-c3ccc4c(c3)CC/C4=N\O)[nH]2)cc1" strictly below 10%?
Reply: 1

Query: Is the reported Population Mitochondria Different-Phenotype (%) for "Cc1cc2c(cc1N1C(=O)c3cccc4c(CCCO)ccc(c34)C1=O)n(C)c(=O)n2C" strictly below 10%?
Reply: -1

Query: Is the reported Population Mitochondria Different-Phenotype (%) for "Nc1nc2c(c(N3CCNCC3)n1)CCC1=C2[C@@H]2CCCC[C@@H]2O1" strictly below 10%?
Reply: -1

Query: Is the reported Population Mitochondria Different-Phenotype (%) for "CCOc1cc(N2CCC(O)CC2)ccc1Nc1ncc2c(n1)N(C1CCCC1)CCC(=O)N2C" strictly below 10%?
Reply: 1

Query: Is the reported Population Mitochondria Different-Phenotype (%) for "CC(C)(C)c1cnc(CSc2cnc(NC(=O)C3CCNCC3)s2)o1" strictly below 10%?
Reply: -1
